Examples of binders with documented log10 binding signal follow.
Biological target: MSI1 full-length (mouse, UniProt Q61474 1-362)
Sequence (Q61474 whole entry): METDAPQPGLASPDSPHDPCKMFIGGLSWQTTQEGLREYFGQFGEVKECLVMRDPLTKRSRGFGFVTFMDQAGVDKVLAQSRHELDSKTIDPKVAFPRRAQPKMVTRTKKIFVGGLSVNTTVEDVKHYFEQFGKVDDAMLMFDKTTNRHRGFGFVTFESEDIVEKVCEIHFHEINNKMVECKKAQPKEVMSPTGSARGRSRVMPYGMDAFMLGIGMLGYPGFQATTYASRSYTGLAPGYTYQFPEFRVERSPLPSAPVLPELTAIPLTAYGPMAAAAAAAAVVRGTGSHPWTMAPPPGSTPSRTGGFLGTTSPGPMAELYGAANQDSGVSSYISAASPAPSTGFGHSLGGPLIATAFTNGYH
Assay: nsRBNS (natural sequence RNA bind-n-seq); RBNS binding buffer (assumed for nsRBNS): 25 mM Tris pH 7.5, 150 mM KCl, 3 mM MgCl2, 0.01% Triton X-100, 500 ug/ml BSA, 20 U/ml SUPERase-In, 4 C; UNK is unkempt and MSI1 is Musashi-1; names of the RNAs are library labels; protein concentration not given here; high values mean tight binding
Whole data set: some 5,800 sequences, median “enrichment r” near 0.54, cut for the highest 2% near 16. What follows is part of a selection rich in the highest values, with near analogues and random picks from the rest.
Field: value | Transform: log10 | Quantity: binding signal | Unit: enrichment R

binder	log10 binding signal
chr7:127374855:127374969:-|CDS|ENSG00000048405|unk|FALSE|unique (ssRNA) RNA: GGGAGUUCUACAGUCCGACGAUCCCUAGAAGCCAUAUAUCCAAGUGUGGACAAACGAGAAUAUAUUAUUAAGCUAGAACCCAUAGAAACUAAUCAAAAUGCAGUAUUUCAAUAUAUUUCGAGGACUGAUAAUCCUAUUGAAGUCAACAGAGGAUUGAGCAUCA	1.45
ENSG00000039319:stop:overlap|stop_codon|ENSG00000039319|stop_codon|NA|stop_codon (ssRNA) RNA: GGGAGUUCUACAGUCCGACGAUCCCAACUCUAGUUUACCAUUAGAAAUAGAAUUAGUGUUUUUCAUUAUAGAACAUCUUUUUUAGUGAAAGAAUGUGCCAUAUUACAUAUUGCAACCUAAUUUGUUAAAACUAACUCCAGCACCAACAGAGGAUUGAGCAUCA	-0.07
chr10:32033860:32033975:-|CDS|ENSG00000170759|unk|FALSE|unique (ssRNA) RNA: GGGAGUUCUACAGUCCGACGAUCCACAGUGGAUAAAGAUAUUACUCUUACCAAUGAUAAACCAGCAACCGCAAUUGGAGUUAUAGGAAAUUUUACUGAUGCUGAAAGAAGAAAGUGUGAAGAAGAAAUUGCUAAAUUAUACAACAACAGAGGAUUGAGCAUCA	0.20
chr12:39618871:39619093:-|CDS|ENSG00000173208|unk|total|mutant (ssRNA) RNA: GGGAGUUCUACAGUCCGACGAUCUAUUAUGAUGUUCUCCCAAUCUGUGGCUCACUUGUAUUCCAAUCUGACCAAACCUAUUUCCGAUGUAAUGCUGACCUCCUAUACACUCAUUCAAACUGCUACAUCCAGAGGAGCAAGCCCCAACAGAGGAUUGAGCAUCA	-0.21
chr9:21239001:21239365:-|three_prime_utr|ENSG00000228083|control|control|control (ssRNA) RNA: GGGAGUUCUACAGUCCGACGAUCCAAAAUUUUCAAAUGUUUUCAGGAGUGUAAAGAAGCAUCAUGUAUACCUGUGCAGGCACUAGUCCUUUACAGAUGACCAUGCUGAUGUCUCCUUUCAUCUAUUUAUUUAAAUAUUUAUUUCAACAGAGGAUUGAGCAUCA	-0.31

Input chr2:205797254:205797461:+|3pUTR|ENSG00000118257|msi1|total|mutant (ssRNA) RNA: GGGAGUUCUACAGUCCGACGAUCUCACCCUCCCAUGAUGCGCAGUGUUCAGAAAGCUGGUAAGUCCCCGGGAUUUCCAGAAGCCGCCUGCAGAAGAAGGUAAGUUUGAAAGCCACUCCAGGGGUCCUGAUGCUGUCAUGCUCACAACAGAGGAUUGAGCAUCA . Output log10 binding signal: -0.32

Input chr20:3582170:3582271:+|CDS|ENSG00000088812|msi1|FALSE|bound_elsewhere (ssRNA) RNA: GGGAGUUCUACAGUCCGACGAUCGGCCUUCGGAAGAUCAAUGUGUCCUACUGGUGCUGGGAAGAUAUGUCCCCAUUUACAAAUAGUUUACUACAGUGGAUGCCGUCUGAGCCCAGUGAUGCUGGAUUCUGUGGAAUUUUAUCACAACAGAGGAUUGAGCAUCA . Output log10 binding signal: -0.07

Input ENSG00000070961:be:win_4451|3pUTR|ENSG00000070961|bound_else_gene|NA|bound_elsewhere_windowed (ssRNA) RNA: GGGAGUUCUACAGUCCGACGAUCGUUUUGAAGCAACUGUUUAAUUUUUAAAAUUUUUGAAAACUUGCUAAUAACCUUUUGUUCAGAAUUUAGUAGAUUGUUUAAUGCAGGACAUCAACUACAUAAUGAAAGAUGCUUGAAAUGCAACAGAGGAUUGAGCAUCA . Output log10 binding signal: -0.21

Input chr14:44928120:44928223:-|3pUTR|ENSG00000179454|unk|total|mutant (ssRNA) RNA: GGGAGUUCUACAGUCCGACGAUCCCGUACAGCAGGCCUCCCAGUGCUGAUGUAAAUAUUUGAGCAGUGUUCCGUACCAUUCUCCGUGCAUAUUAAUUUUUUUAUAUAUCCUUAUAAUUUCCGUUUUUUAAGAUCUUUGCUUUUCAACAGAGGAUUGAGCAUCA . Output log10 binding signal: 0.91

Input chr13:20822168:20822271:-|CDS|ENSG00000132953|unk|total|mutant (ssRNA) RNA: GGGAGUUCUACAGUCCGACGAUCUCGAAAAAUCAGAGAAGAUUCAGAUAUGGCACAAGAUUCUCUGCAGUGCCUUGCCCAGUCCGCUUCUCUUCAUGGACCCAUCUUCCCAGAUGAAGGAUCACAAGUUGAUUAUCCCGCACACAACAGAGGAUUGAGCAUCA . Output log10 binding signal: -0.52

Input chr7:127374855:127374969:-|CDS|ENSG00000048405|unk|total|mutant (ssRNA) RNA: GGGAGUUCUACAGUCCGACGAUCCCCCGAAGCCAUAUAUCCAAGUGUGGACAAACGAGAAUAUAUUAUUAAGCCCGAACCCACCGAAACUAAUCAAAAUGCAGUAUUUCAAUAUAUUUCGAGGACUGAUAAUCCUAUUGAAGUCAACAGAGGAUUGAGCAUCA . Output log10 binding signal: -0.29

Input chr8:103427116:103427218:+|CDS|ENSG00000164934|unk|total|mutant (ssRNA) RNA: GGGAGUUCUACAGUCCGACGAUCGUAUACUGGGAUUGAUCAUCACUGGAAAGAAGCUGUUUUUGCCACAUGUGGACAGCAAGCCGACAUUUGGGAUGAACAAAGAACUAAUCCUAUAUGUUCAAUGACCUGGGGAUUUGACAGCAACAGAGGAUUGAGCAUCA . Output log10 binding signal: -0.44

Input chr1:206903316:206905147:-|three_prime_utr|ENSG00000162894|control|control|control (ssRNA) RNA: GGGAGUUCUACAGUCCGACGAUCUCUGUGCCCUGAGCAUGGCUCUGCCCCCAGGUCGUCUUGCACACCUUGGCAGCCCCCUGUAGUUGACAGGUAAGCUGUAGGCAUGUAGAGCAAUUGUCCCAAUGCCACUUGCUUCCUUUCCAACAGAGGAUUGAGCAUCA . Output log10 binding signal: -0.40
